Reported values of apparent KD of MS2 coat protein for individual entries
Tested on: MS2 coat protein
Assay: apparent KD of MS2 coat protein; designed switch direction (-1 OFF switch, 1 ON switch): -1; higher = weaker reporter binding
Details: input ligand: FMN 200 uM
# value in nM; strip the unit string

INSERT INTO results (sequence_chain, quantity_name, reported_value) VALUES
  ('CGCCCUGACGAAGGAUAUUAAGCUCAUACAUGAGGAUCACCCAUGUCCAUAGUAGUGUAUGCACCUGAGAAGGUCGUCAGCGCU [Eternabot solution 50] (Eterna round: R96, puzzle: Exclusion NG 2)', 'apparent KD of MS2 coat protein', 213),
  ('AGCUGUGGCCGAGGAUAUAUACAUGAGGAUCACCCAUGUAGGUGCGGAUACUCGCACCAAUAAGUGUAGAAGGCGGUCUCAGCA [Eli eng2 - 058] (Eterna round: R96, puzzle: Exclusion NG 2)', 'apparent KD of MS2 coat protein', 10.7);

Query CGUCAGUGAGGAUAUGGUAACAUUUACAUGAGGAUCACCCAUGUUUCUUGGGACUAAAUACUAGAAGGCACUGACG [JR_Ex5_Sub032] (Eterna round: R97, puzzle: Exclusion 5) yields apparent KD of MS2 coat protein of 23.1

Query AGCGCCAUCGUGAGAUGGCGUAUUACAUGAGGAUCACCCAUGUAGGAUAUCGAUUGCUUUGCAGUCGAGAAGGGCAUGUUCUAG [JL ENG3 3.80 Mod G] (Eterna round: R96, puzzle: Exclusion NG 3) yields apparent KD of MS2 coat protein of 82.4

Query GAUUAACAUGAGGAUCACCCAUGUGAGGAUAUUGACUUGCUCACUUUCCCAUUAGAGUCGAGAAGGCGCAUCUU [1986#18] (Eterna round: R97, puzzle: Exclusion 1) yields apparent KD of MS2 coat protein of 25.2

Query AAUAACAAGCCGAUCCUCAACAUGAGGAUCACCCAUGUGCUCGUCUUGUAAAGUACUAUCACGAAAGUGAUAGUACA (Eterna round: R97, puzzle: Sensor, turn-off variant 1) yields apparent KD of MS2 coat protein of 319
